Values from ChEMBL document CHEMBL1155516

- tgt: UniProt P35968
- Sequence (P35968 whole entry): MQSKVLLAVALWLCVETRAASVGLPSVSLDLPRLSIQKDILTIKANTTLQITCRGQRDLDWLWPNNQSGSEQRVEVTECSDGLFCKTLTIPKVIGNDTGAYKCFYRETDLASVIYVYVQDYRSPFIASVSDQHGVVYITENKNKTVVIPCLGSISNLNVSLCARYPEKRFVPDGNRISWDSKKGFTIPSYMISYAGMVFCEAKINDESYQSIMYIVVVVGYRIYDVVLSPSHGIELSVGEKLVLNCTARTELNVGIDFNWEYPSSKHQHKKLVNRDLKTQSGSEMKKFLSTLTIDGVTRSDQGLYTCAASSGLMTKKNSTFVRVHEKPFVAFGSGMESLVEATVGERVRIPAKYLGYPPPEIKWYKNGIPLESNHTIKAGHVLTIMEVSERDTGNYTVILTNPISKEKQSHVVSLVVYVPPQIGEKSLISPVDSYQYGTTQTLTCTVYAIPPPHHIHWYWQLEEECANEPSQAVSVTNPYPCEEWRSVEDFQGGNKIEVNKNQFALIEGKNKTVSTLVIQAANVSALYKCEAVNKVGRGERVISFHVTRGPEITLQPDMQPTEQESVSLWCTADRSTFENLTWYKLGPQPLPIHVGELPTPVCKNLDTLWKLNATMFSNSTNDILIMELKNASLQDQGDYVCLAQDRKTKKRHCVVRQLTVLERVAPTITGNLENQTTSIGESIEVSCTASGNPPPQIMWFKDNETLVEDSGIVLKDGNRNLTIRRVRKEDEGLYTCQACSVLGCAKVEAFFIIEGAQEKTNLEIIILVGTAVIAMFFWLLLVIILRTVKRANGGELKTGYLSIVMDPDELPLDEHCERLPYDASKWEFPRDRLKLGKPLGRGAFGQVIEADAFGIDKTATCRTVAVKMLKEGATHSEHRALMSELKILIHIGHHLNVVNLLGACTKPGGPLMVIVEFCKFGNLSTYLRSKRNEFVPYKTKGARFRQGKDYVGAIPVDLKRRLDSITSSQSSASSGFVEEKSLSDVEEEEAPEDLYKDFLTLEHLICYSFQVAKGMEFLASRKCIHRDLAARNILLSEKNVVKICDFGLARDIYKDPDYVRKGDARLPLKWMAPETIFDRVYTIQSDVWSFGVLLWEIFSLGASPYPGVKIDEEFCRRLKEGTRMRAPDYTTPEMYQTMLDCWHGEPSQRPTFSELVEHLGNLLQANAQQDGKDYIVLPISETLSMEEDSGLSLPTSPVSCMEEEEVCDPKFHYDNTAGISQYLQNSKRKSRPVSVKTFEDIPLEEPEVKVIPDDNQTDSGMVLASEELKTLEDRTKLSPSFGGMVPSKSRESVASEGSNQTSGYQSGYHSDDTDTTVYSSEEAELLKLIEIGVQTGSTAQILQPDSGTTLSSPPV
- assay_info: Inhibition of VEGFR2 phosphorylation in VEGF165-stimulated HUVEC at 100 uM treated for 1 hr before VEGF165 challenge measured after 5 mins by Western blot analysis
- Assay type: cell-based
The source made the active and inactive calls. The calls are words filed in the database; no cut-off is given here. Where a SMILES comes first, the peptide text is derived from it. Bridges are numbered along the chain shown (N, C = ends).
Can you answer with just one of these options? class 1 = active, class 0 = inactive

Problem: Field: outcome | Entry: CC(C)C[C@@H]1NC(=O)CNC(=O)[C@H](C)NC(=O)[C@H](CC(=O)O)NC(=O)[C@H](Cc2ccc(O)cc2)NC(=O)[C@H](Cc2ccc(O)cc2)NC(=O)CC[C@@H](C(N)=O)NC(=O)[C@H](CCC(=O)O)NC1=O (YYDAGLEE-NH2; lactam N-8)
Result: class 0

Problem: Please answer likewise for C[C@@H]1NC(=O)CNC(=O)[C@H](CCC(=O)O)NC(=O)[C@H](CC(=O)O)NC(=O)[C@H](Cc2ccc(O)cc2)NC(=O)[C@H](Cc2ccc(O)cc2)NC(=O)CC[C@@H](C(N)=O)NC(=O)[C@H](CCC(=O)O)NC1=O (YYDEGAEE-NH2; lactam N-8)
Result: class 0

Problem: Here is the next molecule: CC(C)C[C@@H]1NC(=O)CNC(=O)[C@H](CCC(=O)O)NC(=O)[C@H](CC(=O)O)NC(=O)[C@H](Cc2ccc(O)cc2)NC(=O)[C@H](C)NC(=O)CC[C@@H](C(N)=O)NC(=O)[C@H](CCC(=O)O)NC1=O (AYDEGLEE-NH2; lactam N-8)
Result: class 0

Problem: # iterate: CC(C)C[C@@H]1NC(=O)CNC(=O)[C@H](CCC(=O)O)NC(=O)[C@H](CC(=O)O)NC(=O)[C@H](CCCCN)NC(=O)[C@H](Cc2ccc(O)cc2)NC(=O)CC[C@@H](C(N)=O)NC(=O)[C@H](CCC(=O)O)NC1=O (YKDEGLEE-NH2; lactam N-8)
Result: class 1

Problem: Quick one: CC(C)C[C@@H]1NC(=O)[C@H](CCCCN)NC(=O)[C@H](CCC(=O)O)NC(=O)[C@H](CC(=O)O)NC(=O)[C@H](Cc2ccc(O)cc2)NC(=O)[C@H](Cc2ccc(O)cc2)NC(=O)CC[C@@H](C(N)=O)NC(=O)[C@H](CCC(=O)O)NC1=O (YYDEKLEE-NH2; lactam N-8)
Result: class 1
